Origin of the recorded values: patent US8039430B2

# key: entry, value: inhibition at 50 µg/mL
Target: HIV integrase enzyme (Human immunodeficiency virus type 1 group M subtype B, UniProt P04585)
Construct: against the HIV integrase enzyme
Test: HIV integrase initial screening (3′ processing function)
Type: biochemical
Details: Example 2 compounds; Conc. 50 μg/mL; 3′ processing function of the enzyme
Excerpt: Compounds synthesized in Example 2 were additionally included in a random database screening strategy against the HIV integrase enzyme. The compounds that were chosen to be tested against HIV integrase were 78, 81, 88 and 89 and the results are represented in Table 4. […]
Where a name gives a salt, the structure may show the parent alone.

| Molecule | Unit Abbreviation | inhibition at 50 µg/mL |
| --- | --- | --- |
| C=CCOc1ccc(C[C@H](NC(C)=O)C(=O)N[C@@H](CCCCNC(=N)N)C(=O)N[C@@H](CC=C)C(=O)OC)cc1 [Compound 88, hydrochloride] | % | 95 |
| C=CCOc1ccc(C[C@H](NC(C)=O)C(=O)N[C@@H](CCCNC(=N)N)C(=O)N[C@@H](CC=C)C(=O)OC)cc1 [Compound 81, hydrochloride] | % | 70 |
| COC(=O)[C@@H]1CC=CCOc2ccc(cc2)C[C@H](NC(C)=O)C(=O)N[C@@H](CCCCNC(=N)N)C(=O)N1 [Compound 89, hydrochloride] | % | 4 |
| C=CCOc1ccc(C[C@H](NC(C)=O)C(=O)N[C@@H](CCCCN)C(=O)N[C@@H](CC=C)C(=O)OC)cc1 [Compound 78, hydrochloride] | % | 15 |

----------
# key: entry, value: MIC
Test system: #449 E. faecium van B ST17
Test: Antibacterial assay (MIC), VRE strain #449, Enterococossel Broth, Example 1
Type: cell-based, Enterococcus faecium
Settings: Enterococcus faecium; Example 1 compounds; VRE #449 E. faecium van B; 24 hrs, 37° C.; read-out: 449 (minimum inhibitory concentration)
Protocol: Antibacterial Assay Method for Staphylococcus aureus (ATCC 6538P) and Enterococcus faecium VRE strains: #243 E. faecium van B ST17 #449 E. faecium van B ST17 […] Compounds are then diluted 1/10 in H2O to a test conc of 500 ug/ml ready for immediate use, or storage at −20° C. […] After incubation for 24 hrs the plates are removed and read. […] The plates are analysed for MIC and the results tabulated.

| Compound | Target Under Test | MIC |
| --- | --- | --- |
| N=C(N)NCCC[C@@H](NC(=O)CCCOc1ccc2ccccc2c1-c1c(OCCCC(=O)N[C@H](CCCNC(=N)N)C(=O)OCc2ccccn2)ccc2ccccc12)C(=O)OCc1ccccn1 | #449 E. faecium van B ST17 | > 62.6 µg/mL |
| CC(C)CCOc1ccc2ccccc2c1-c1c(OCC(=O)N[C@H](CCCCN)C(=O)N[C@H](CCCNC(=N)N)C(=O)N[C@@H](CC(C)C)c2ncc(-c3ccccc3)o2)ccc2ccccc12.Cl.Cl (atropisomer, axis not shown) | #449 E. faecium van B ST17 | > 62.6 µg/mL |
| CC(C)CCOc1ccc2ccccc2c1-c1c(OCC(=O)N[C@H](CCCCN)C(=O)N[C@H](CCCNC(=N)N)C(=O)N[C@@H](CC(C)C)C(=O)OCc2c(Cl)cccc2Cl)ccc2ccccc12.Cl.Cl (atropisomer, axis not shown) | #449 E. faecium van B ST17 | > 62.6 µg/mL |
| CC(C)CCOc1ccc2ccccc2c1-c1c(OCC(=O)N[C@H](CCCCN)C(=O)N[C@H](CCCNC(=N)N)C(=O)N[C@@H](CC(C)C)C(=O)OCCc2ccccc2)ccc2ccccc12.Cl.Cl (atropisomer, axis not shown) | #449 E. faecium van B ST17 | 15.7 to 62.5 µg/mL |

----------
System: #449 E. faecium van B ST17
Test: Antibacterial assay (MIC), VRE strain #449, Enterococossel Broth, Example 1
Assay type: cell-based, Enterococcus faecium
Details: Enterococcus faecium; Example 1 compounds; VRE #449 E. faecium van B; 24 hrs, 37° C.; read-out: 449 (minimum inhibitory concentration)

| Molecule | MIC |
| --- | --- |
| CC(C)CCOc1ccc2ccccc2c1-c1c(OCC(=O)N[C@H](CCCCN)C(=O)N[C@H](CCCNC(=N)N)C(=O)N[C@H](COCc2ccccc2)CC(C)C)ccc2ccccc12.Cl.Cl (atropisomer, axis not shown) [Compound 15] | 15.7 to 62.5 µg/mL |
| Cl.Cl.N=C(N)NCCCC[C@@H](NC(=O)CCCOc1ccc2ccccc2c1-c1c(OCCCC(=O)N[C@H](CCCCNC(=N)N)C(=O)Oc2cccc3ccccc23)ccc2ccccc12)C(=O)Oc1cccc2ccccc12 (atropisomer, axis not shown) [Compound 40] | > 62.6 µg/mL |
| C=CC[C@H](NC(=O)[C@@H](CCCNC(=N)N)NC(=O)[C@@H](CCCCN)NC(=O)COc1ccc2ccccc2c1-c1c(OCCCCC)ccc2ccccc12)C(=O)OCc1ccccc1.Cl.Cl (atropisomer, axis not shown) [Compound 26] | 15.7 to 62.5 µg/mL |
| CC(C)CCOc1ccc2ccccc2c1-c1c(OCC(=O)N[C@H](CCCCN)C(=O)N[C@H](CCCNC(=N)N)C(=O)N[C@@H](CC(C)C)c2ncc(Cc3ccccc3)o2)ccc2ccccc12.Cl.Cl (atropisomer, axis not shown) [Compound 18] | 15.7 to 62.5 µg/mL |

----------
Test system: #449 E. faecium van B ST17
Experiment: Antibacterial assay (MIC), VRE strain #449, Enterococossel Broth, Example 1
Type: cell-based, Enterococcus faecium
Details: Enterococcus faecium; Example 1 compounds; VRE #449 E. faecium van B; 24 hrs, 37° C.; read-out: 449 (minimum inhibitory concentration)
# key: entry, value: MIC
Value Kind: MIC

| Compound | Observed Result |
| --- | --- |
| CC(C)CCOc1ccc2ccccc2c1-c1c(OCC(=O)N[C@H](CCCCN)C(=O)N[C@H](CCCNC(=N)N)C(=O)N[C@@H](CC(C)C)C(=O)NCc2ccccc2)ccc2ccccc12.Cl.Cl (atropisomer, axis not shown) [Compound 14] | 15.7 to 62.5 µg/mL |
| C=CCOc1ccc2ccccc2c1-c1c(OCC(=O)N[C@H](CCCNC(=N)N)C(=O)Nc2cccc(C(=O)OCc3ccccc3)c2)ccc2ccccc12.Cl (atropisomer, axis not shown) [Compound 45] | 15.7 to 62.5 µg/mL |
| CC(C)CCOc1ccc2ccccc2c1-c1c(OCC(=O)N[C@H](CCCCN)C(=O)N[C@H](CCCNC(=N)N)C(=O)N[C@@H](CC(C)C)C(=O)OCc2ccccc2)ccc2ccccc12 (atropisomer, axis not shown) [Compound 10] | 15.7 to 62.5 µg/mL |
| C=CC[C@H](NC(=O)[C@@H](CCCNC(=N)N)NC(=O)[C@@H](CCCCN)NC(=O)COc1ccc2ccccc2c1-c1c(OCC(C)C)ccc2ccccc12)C(=O)OCc1ccccc1.Cl.Cl (atropisomer, axis not shown) [Compound 25] | 15.7 to 62.5 µg/mL |
| CC(C)CCOc1ccc2ccccc2c1-c1c(OCC(=O)N[C@H](CCCCN)C(=O)N[C@H](CCCNC(=N)N)C(=O)NC2(C(=O)OCc3ccccc3)CCCC2)ccc2ccccc12.Cl.Cl (atropisomer, axis not shown) [Compound 20] | 15.7 to 62.5 µg/mL |
| CC(C)CCOc1ccc2ccccc2c1-c1c(OCCNC(=O)[C@@H](CCCCN)NC(=O)[C@@H](CCCNC(=N)N)NC(=O)[C@@H](CC(C)C)NC(=O)Cc2ccccc2)ccc2ccccc12.Cl.Cl (atropisomer, axis not shown) [Compound 30] | > 62.6 µg/mL |
| CC(C)CCOc1ccccc1-c1ccccc1OCC(=O)N[C@H](CCCCN)C(=O)N[C@H](CCCNC(=N)N)C(=O)N[C@@H](CC(C)C)C(=O)OCc1ccccc1.Cl.Cl [Compound 11] | 15.7 to 62.5 µg/mL |
| C=CCOc1ccc2ccccc2c1-c1c(OCC(=O)N[C@H](CCCN)C(=O)Nc2cccc(C(=O)NOCc3ccccc3)c2)ccc2ccccc12 [Compound 43] | > 62.6 µg/mL |
| CC(C)CCOc1ccc2ccccc2c1-c1c(OCC(=O)N[C@H](CCCCN)C(=O)N[C@H](CCCNC(=N)N)C(=O)N[C@@H](CC(C)C)C(=O)OCc2ccccc2)ccc2ccccc12.Cl.Cl (atropisomer, axis not shown) [Compound 1] | 15.7 to 62.5 µg/mL |
| CC(C)CCOc1ccc2ccccc2c1-c1c(OCC(=O)N[C@H](CCCCN)C(=O)N[C@H](CCCNC(=N)N)C(=O)N[C@@H](CC(C)C)C(=O)OCc2ccc([N+](=O)[O-])cc2)ccc2ccccc12.Cl.Cl (atropisomer, axis not shown) [Compound 5] | 15.7 to 62.5 µg/mL |
| CC(C)CCOc1ccc2ccccc2c1-c1c(OCC(=O)N[C@H](CCCCN)C(=O)N[C@H](CCCNC(=N)N)C(=O)N[C@@H](CC(C)C)c2nc(S(=O)(=O)O)c(-c3ccccc3)o2)ccc2ccccc12.Cl.Cl (atropisomer, axis not shown) [Compound 17] | 15.7 to 62.5 µg/mL |
| C=CC[C@H](NC(=O)[C@@H](CCCNC(=N)N)NC(=O)[C@@H](CCCCN)NC(=O)COc1ccc2ccccc2c1-c1c(OCC2CCCCC2)ccc2ccccc12)C(=O)OCc1ccccc1.Cl.Cl (atropisomer, axis not shown) [Compound 23] | 15.7 to 62.5 µg/mL |
| C=CCOc1ccc2ccccc2c1-c1c(OCC(=O)N[C@H](CCCN)C(=O)Nc2cccc(C(=O)OC)c2)ccc2ccccc12.Cl (atropisomer, axis not shown) [Compound 41] | > 62.6 µg/mL |
| C=CCOc1ccc2ccccc2c1-c1c(OCC(=O)N[C@H](CCCN)C(=O)Nc2cccc(C(=O)OCc3ccccc3)c2)ccc2ccccc12.Cl (atropisomer, axis not shown) [Compound 42] | > 62.6 µg/mL |
| C=CC[C@H](NC(=O)[C@@H](CCCNC(=N)N)NC(=O)[C@@H](CCCCN)NC(=O)COc1ccc2ccccc2c1-c1c(OCC2CCC2)ccc2ccccc12)C(=O)OCc1ccccc1.Cl.Cl (atropisomer, axis not shown) [Compound 24] | 15.7 to 62.5 µg/mL |
| CC(C)CCOc1ccc2ccccc2c1-c1c(OCC(=O)N[C@H](CCCCN)C(=O)N[C@H](CCCNC(=N)N)C(=O)N[C@H](C(=O)OCc2ccccc2)C(C)C)ccc2ccccc12.Cl.Cl (atropisomer, axis not shown) [Compound 2] | 15.7 to 62.5 µg/mL |
| C=CCOc1ccc2ccccc2c1-c1c(OCC(=O)N[C@H](CCCNC(=N)N)C(=O)Nc2cccc(C(=O)OC)c2)ccc2ccccc12.Cl (atropisomer, axis not shown) [Compound 44] | > 62.6 µg/mL |
